Test system: 266 human PDZ domains (PDZome)
Assay: Holdup assay (chromatographic retention, PDZome-binding profile, BI)
Parameters: key: binding intensity: 0.00 = no binding, 1.00 = maximal binding
Settings: PDZ domain PSMD9-1
Excerpt: The holdup method is a chromatographic approach in solution developed in our group that allows to measure the binding strength of a peptide, attached to a resin, against a library of domains of a same family. […] The flow-throughs containing the unbound protein fraction are recovered by filtration and loaded on a capillary electrophoresis instrument to quantify the amount of remaining free PDZ. […] The assay is particularly suited to quantitatively evaluate and compare large numbers of interactions. […]
reported property: BI
The reply should be a number, written without any unit.

Query: What does the data say about its BI? Entry: CC[C@H](C)[C@H](NC(=O)[C@H](CCC(N)=O)NC(=O)[C@@H](NC(=O)[C@H](Cc1c[nH]cn1)NC(=O)[C@H](CCC(N)=O)NC(=O)[C@H](CC(=O)O)NC(=O)[C@H](CCC(=O)O)NC(=O)[C@H](CC(=O)O)NC(=O)CCC(=O)NCCCOCCOCCOCCCNC(=O)CCCC[C@@H]1SC[C@@H]2NC(=O)N[C@@H]21)[C@@H](C)O)C(=O)N[C@H](C(=O)N[C@@H](CCCCNC(C)=O)C(=O)N[C@H](C(=O)O)C(C)C)[C@@H](C)O
Result: -0.007

###

Test system: 266 human PDZ domains (PDZome)
Experiment: Holdup assay (chromatographic retention, PDZome-binding profile, BI)
Parameters: key: binding intensity: 0.00 = no binding, 1.00 = maximal binding
Settings: PDZ domain PTPN3-1
reported property: BI
The reply should be a number, written without any unit.

Query: What does the data say about its BI? Entry: CC[C@H](C)[C@H](NC(=O)[C@H](CCC(N)=O)NC(=O)[C@@H](NC(=O)[C@H](Cc1c[nH]cn1)NC(=O)[C@H](CCC(N)=O)NC(=O)[C@H](CC(=O)O)NC(=O)[C@H](CCC(=O)O)NC(=O)[C@H](CC(=O)O)NC(=O)CCC(=O)NCCCOCCOCCOCCCNC(=O)CCCC[C@@H]1SC[C@@H]2NC(=O)N[C@@H]21)[C@@H](C)O)C(=O)N[C@H](C(=O)N[C@@H](CCCCN)C(=O)N[C@H](C(=O)O)C(C)C)[C@@H](C)O
Result: 0.075

###

Could you please report measured BI for the items listed next?
Test system: GRID2IP-1
Experiment: Holdup assay, GRID2IP-1
Format: binding, human
*1 amine or outer side, *2 acyl side, *3 side chain or, on linkers, in order; H or OH if unused. Where a SMILES comes first, the peptide text is derived from it. The star is where a group is joined. X1 = O=C(CCCC[C@@H]1SC[C@@H]2NC(=O)N[C@@H]21)NCCCOCCOCCOCCCN*; Suc = O=C(CCC(=O)[*:2])[*:1]
The reply should be a number, written without any unit.

Query: BI of CC[C@H](C)[C@H](NC(=O)[C@H](CCC(N)=O)NC(=O)[C@@H](NC(=O)[C@H](Cc1c[nH]cn1)NC(=O)[C@H](CCC(N)=O)NC(=O)[C@H](CC(=O)O)NC(=O)[C@H](CCC(=O)O)NC(=O)[C@H](CC(=O)O)NC(=O)CCC(=O)NCCCOCCOCCOCCCNC(=O)CCCC[C@@H]1SC[C@@H]2NC(=O)N[C@@H]21)[C@@H](C)O)C(=O)N[C@H](C(=O)N[C@@H](CCCCNC(C)=O)C(=O)N[C@H](C(=O)O)C(C)C)[C@@H](C)O on GRID2IP-1?
Result: -0.067

Query: BI of CC[C@H](C)[C@H](NC(=O)[C@H](CCC(N)=O)NC(=O)[C@@H](NC(=O)[C@H](Cc1c[nH]cn1)NC(=O)[C@H](CCC(N)=O)NC(=O)[C@H](CC(=O)O)NC(=O)[C@H](CCC(=O)O)NC(=O)[C@H](CC(=O)O)NC(=O)CCC(=O)NCCCOCCOCCOCCCNC(=O)CCCC[C@@H]1SC[C@@H]2NC(=O)N[C@@H]21)[C@@H](C)O)C(=O)N[C@H](C(=O)N[C@@H](CCCCN)C(=O)N[C@H](C(=O)O)C(C)C)[C@@H](C)O on GRID2IP-1?
Result: -0.012

Query: BI of CC[C@H](C)[C@H](NC(=O)[C@H](CCC(N)=O)NC(=O)[C@@H](NC(=O)[C@H](Cc1c[nH]cn1)NC(=O)[C@H](CCC(N)=O)NC(=O)[C@H](CC(=O)O)NC(=O)[C@H](CCC(=O)O)NC(=O)[C@H](CC(=O)O)NC(=O)CCC(=O)NCCCOCCOCCOCCCNC(=O)CCCC[C@@H]1SC[C@@H]2NC(=O)N[C@@H]21)[C@@H](C)O)C(=O)N[C@H](C(=O)N[C@@H](CCCNC(=N)N)C(=O)N[C@H](C(=O)O)C(C)C)[C@@H](C)O [PTEN_KR] ({X1-Suc}-DEDQHTQITRV-OH) on GRID2IP-1?
Result: -0.033

###

Biological target: INADL-7 (Homo sapiens, UniProt Q8NI35)
Sequence (Q8NI35 whole entry): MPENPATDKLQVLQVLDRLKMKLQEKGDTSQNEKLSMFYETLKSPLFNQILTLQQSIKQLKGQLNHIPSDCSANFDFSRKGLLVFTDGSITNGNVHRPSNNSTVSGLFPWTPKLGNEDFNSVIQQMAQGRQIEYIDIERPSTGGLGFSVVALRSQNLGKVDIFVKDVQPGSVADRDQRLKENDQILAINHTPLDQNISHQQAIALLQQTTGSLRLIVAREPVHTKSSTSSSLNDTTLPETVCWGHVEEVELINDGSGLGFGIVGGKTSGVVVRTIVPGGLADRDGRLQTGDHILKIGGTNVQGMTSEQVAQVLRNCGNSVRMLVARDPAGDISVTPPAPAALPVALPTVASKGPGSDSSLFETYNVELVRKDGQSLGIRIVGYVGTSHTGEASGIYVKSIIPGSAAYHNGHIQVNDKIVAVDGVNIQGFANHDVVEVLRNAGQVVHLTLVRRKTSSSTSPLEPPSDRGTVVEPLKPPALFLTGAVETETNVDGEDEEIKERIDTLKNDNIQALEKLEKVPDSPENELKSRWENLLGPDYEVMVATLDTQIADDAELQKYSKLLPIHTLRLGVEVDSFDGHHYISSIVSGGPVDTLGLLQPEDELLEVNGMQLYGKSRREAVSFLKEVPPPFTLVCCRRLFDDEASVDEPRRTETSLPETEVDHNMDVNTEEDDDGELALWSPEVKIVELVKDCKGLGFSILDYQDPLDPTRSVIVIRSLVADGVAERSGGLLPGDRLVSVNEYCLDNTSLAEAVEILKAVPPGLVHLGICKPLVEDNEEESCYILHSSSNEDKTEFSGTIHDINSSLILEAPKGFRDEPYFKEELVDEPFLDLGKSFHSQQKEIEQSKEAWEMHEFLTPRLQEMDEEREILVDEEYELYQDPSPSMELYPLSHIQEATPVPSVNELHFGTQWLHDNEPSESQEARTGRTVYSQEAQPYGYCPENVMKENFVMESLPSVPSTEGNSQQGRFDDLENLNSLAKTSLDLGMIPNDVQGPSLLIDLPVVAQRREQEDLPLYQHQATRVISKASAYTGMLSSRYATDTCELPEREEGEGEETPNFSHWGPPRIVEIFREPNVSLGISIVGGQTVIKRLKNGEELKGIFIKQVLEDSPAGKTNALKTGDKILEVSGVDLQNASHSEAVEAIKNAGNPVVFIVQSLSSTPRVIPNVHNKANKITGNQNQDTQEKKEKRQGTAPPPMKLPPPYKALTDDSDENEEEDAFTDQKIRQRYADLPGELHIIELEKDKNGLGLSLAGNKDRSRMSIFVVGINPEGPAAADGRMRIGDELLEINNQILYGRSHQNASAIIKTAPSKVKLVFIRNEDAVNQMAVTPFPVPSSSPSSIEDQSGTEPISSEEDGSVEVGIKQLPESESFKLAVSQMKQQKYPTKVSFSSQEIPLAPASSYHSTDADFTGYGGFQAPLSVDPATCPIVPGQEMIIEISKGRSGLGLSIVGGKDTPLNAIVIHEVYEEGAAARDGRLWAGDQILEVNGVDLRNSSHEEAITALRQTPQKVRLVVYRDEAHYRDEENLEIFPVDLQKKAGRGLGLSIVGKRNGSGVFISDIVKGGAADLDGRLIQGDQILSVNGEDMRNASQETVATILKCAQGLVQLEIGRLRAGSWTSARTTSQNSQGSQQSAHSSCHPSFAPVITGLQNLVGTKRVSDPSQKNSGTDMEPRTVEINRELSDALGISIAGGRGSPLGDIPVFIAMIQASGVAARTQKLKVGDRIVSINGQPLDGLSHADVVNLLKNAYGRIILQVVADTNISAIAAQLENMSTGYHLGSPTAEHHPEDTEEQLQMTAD
Assay: Holdup assay, INADL-7
Assay type: binding
*1 amine or outer side, *2 acyl side, *3 side chain or, on linkers, in order; H or OH if unused. Where a SMILES comes first, the peptide text is derived from it. The star is where a group is joined. X1 = O=C(CCCC[C@@H]1SC[C@@H]2NC(=O)N[C@@H]21)NCCCOCCOCCOCCCN*; Suc = O=C(CCC(=O)[*:2])[*:1]
reported property: BI
The reply should be a number, written without any unit.

Query: What does the data say about its BI? Entry: CC[C@H](C)[C@H](NC(=O)[C@H](CCC(N)=O)NC(=O)[C@@H](NC(=O)[C@H](Cc1c[nH]cn1)NC(=O)[C@H](CCC(N)=O)NC(=O)[C@H](CC(=O)O)NC(=O)[C@H](CCC(=O)O)NC(=O)[C@H](CC(=O)O)NC(=O)CCC(=O)NCCCOCCOCCOCCCNC(=O)CCCC[C@@H]1SC[C@@H]2NC(=O)N[C@@H]21)[C@@H](C)O)C(=O)N[C@H](C(=O)N[C@@H](CCCCN)C(=O)N[C@H](C(=O)O)C(C)C)[C@@H](C)O
Result: 0.136

Query: What does the data say about its BI? Entry: CC[C@H](C)[C@H](NC(=O)[C@H](CCC(N)=O)NC(=O)[C@@H](NC(=O)[C@H](Cc1c[nH]cn1)NC(=O)[C@H](CCC(N)=O)NC(=O)[C@H](CC(=O)O)NC(=O)[C@H](CCC(=O)O)NC(=O)[C@H](CC(=O)O)NC(=O)CCC(=O)NCCCOCCOCCOCCCNC(=O)CCCC[C@@H]1SC[C@@H]2NC(=O)N[C@@H]21)[C@@H](C)O)C(=O)N[C@H](C(=O)N[C@@H](CCCNC(=N)N)C(=O)N[C@H](C(=O)O)C(C)C)[C@@H](C)O [PTEN_KR] ({X1-Suc}-DEDQHTQITRV-OH)
Result: 0.176

Query: What does the data say about its BI? Entry: CC[C@H](C)[C@H](NC(=O)[C@H](CCC(N)=O)NC(=O)[C@@H](NC(=O)[C@H](Cc1c[nH]cn1)NC(=O)[C@H](CCC(N)=O)NC(=O)[C@H](CC(=O)O)NC(=O)[C@H](CCC(=O)O)NC(=O)[C@H](CC(=O)O)NC(=O)CCC(=O)NCCCOCCOCCOCCCNC(=O)CCCC[C@@H]1SC[C@@H]2NC(=O)N[C@@H]21)[C@@H](C)O)C(=O)N[C@H](C(=O)N[C@@H](CCCCNC(C)=O)C(=O)N[C@H](C(=O)O)C(C)C)[C@@H](C)O
Result: 0.306

Query: What does the data say about its BI? Entry: CC[C@H](C)[C@H](NC(=O)[C@H](CCC(N)=O)NC(=O)[C@@H](NC(=O)[C@H](Cc1c[nH]cn1)NC(=O)[C@H](CCC(N)=O)NC(=O)[C@H](CC(=O)O)NC(=O)[C@H](CCC(=O)O)NC(=O)[C@H](CC(=O)O)NC(=O)[C@H](Cc1ccccc1)NC(=O)[C@@H]1CCCN1C(=O)CCC(=O)NCCCOCCOCCOCCCNC(=O)CCCC[C@@H]1SC[C@@H]2NC(=O)N[C@@H]21)[C@@H](C)O)C(=O)N[C@H](C(=O)N[C@@H](CCCCN)C(=O)N[C@H](C(=O)O)C(C)C)[C@@H](C)O [PTEN_13] ({X1-Suc}-PFDEDQHTQITKV-OH)
Result: 0.07

###

Biological target: UniProt O75970
Sequence (O75970 whole entry): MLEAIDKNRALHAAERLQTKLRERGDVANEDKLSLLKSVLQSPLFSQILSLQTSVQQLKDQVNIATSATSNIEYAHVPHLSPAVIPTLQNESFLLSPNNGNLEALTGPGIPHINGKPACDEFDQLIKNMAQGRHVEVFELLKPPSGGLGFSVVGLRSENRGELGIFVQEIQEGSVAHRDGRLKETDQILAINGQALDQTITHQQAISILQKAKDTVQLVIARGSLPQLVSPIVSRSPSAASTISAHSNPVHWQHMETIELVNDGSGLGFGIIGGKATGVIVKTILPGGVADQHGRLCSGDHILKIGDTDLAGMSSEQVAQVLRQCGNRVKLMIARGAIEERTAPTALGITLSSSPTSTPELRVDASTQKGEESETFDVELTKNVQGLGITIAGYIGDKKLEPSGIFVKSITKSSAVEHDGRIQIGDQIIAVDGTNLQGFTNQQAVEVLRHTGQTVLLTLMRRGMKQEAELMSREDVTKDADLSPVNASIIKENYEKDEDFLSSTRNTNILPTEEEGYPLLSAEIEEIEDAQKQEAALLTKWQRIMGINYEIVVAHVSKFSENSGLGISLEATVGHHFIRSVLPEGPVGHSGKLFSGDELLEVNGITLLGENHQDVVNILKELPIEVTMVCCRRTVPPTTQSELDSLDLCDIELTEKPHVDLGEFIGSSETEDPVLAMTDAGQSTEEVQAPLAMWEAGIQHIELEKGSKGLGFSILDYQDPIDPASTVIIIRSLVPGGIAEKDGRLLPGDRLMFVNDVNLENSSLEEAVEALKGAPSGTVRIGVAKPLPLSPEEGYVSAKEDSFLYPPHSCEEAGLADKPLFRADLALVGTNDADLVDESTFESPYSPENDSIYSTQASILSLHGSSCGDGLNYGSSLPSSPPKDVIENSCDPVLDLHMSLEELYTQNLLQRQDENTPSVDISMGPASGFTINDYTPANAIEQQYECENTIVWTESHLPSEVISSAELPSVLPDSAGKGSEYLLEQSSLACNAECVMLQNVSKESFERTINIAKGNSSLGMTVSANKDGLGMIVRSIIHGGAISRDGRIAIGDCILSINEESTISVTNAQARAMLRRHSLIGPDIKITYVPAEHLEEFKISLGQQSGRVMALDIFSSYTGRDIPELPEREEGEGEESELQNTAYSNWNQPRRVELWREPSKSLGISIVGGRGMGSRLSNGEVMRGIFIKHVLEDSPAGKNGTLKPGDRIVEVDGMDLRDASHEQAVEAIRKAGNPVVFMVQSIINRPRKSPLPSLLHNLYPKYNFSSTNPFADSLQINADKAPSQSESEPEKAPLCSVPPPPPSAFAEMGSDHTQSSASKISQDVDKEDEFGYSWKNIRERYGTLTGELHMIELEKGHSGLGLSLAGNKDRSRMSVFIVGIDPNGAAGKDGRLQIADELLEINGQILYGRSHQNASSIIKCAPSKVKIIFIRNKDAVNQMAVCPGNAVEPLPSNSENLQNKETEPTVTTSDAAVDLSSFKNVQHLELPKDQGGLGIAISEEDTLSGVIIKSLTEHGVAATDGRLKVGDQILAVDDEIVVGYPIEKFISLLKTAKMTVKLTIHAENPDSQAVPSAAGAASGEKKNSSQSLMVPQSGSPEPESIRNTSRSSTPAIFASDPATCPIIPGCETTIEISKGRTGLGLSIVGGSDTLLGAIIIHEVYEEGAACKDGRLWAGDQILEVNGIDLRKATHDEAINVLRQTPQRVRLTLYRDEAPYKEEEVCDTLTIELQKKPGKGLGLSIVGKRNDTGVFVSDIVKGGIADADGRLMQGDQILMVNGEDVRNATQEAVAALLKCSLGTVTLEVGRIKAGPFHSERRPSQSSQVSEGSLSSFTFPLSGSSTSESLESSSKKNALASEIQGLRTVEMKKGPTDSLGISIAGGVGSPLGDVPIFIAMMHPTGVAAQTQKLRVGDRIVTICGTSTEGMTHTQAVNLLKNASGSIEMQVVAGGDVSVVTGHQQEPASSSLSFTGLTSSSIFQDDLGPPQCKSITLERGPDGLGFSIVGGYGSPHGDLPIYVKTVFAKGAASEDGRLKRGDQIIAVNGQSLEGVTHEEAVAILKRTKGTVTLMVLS
Assay: Holdup assay, MPDZ-11
Assay type: binding
*1 amine or outer side, *2 acyl side, *3 side chain or, on linkers, in order; H or OH if unused. Where a SMILES comes first, the peptide text is derived from it. The star is where a group is joined. X1 = O=C(CCCC[C@@H]1SC[C@@H]2NC(=O)N[C@@H]21)NCCCOCCOCCOCCCN*; Suc = O=C(CCC(=O)[*:2])[*:1]
reported property: BI
The reply should be a number, written without any unit.

Query: What does the data say about its BI? Entry: CC[C@H](C)[C@H](NC(=O)[C@H](CCC(N)=O)NC(=O)[C@@H](NC(=O)[C@H](Cc1c[nH]cn1)NC(=O)[C@H](CCC(N)=O)NC(=O)[C@H](CC(=O)O)NC(=O)[C@H](CCC(=O)O)NC(=O)[C@H](CC(=O)O)NC(=O)[C@H](Cc1ccccc1)NC(=O)[C@@H]1CCCN1C(=O)CCC(=O)NCCCOCCOCCOCCCNC(=O)CCCC[C@@H]1SC[C@@H]2NC(=O)N[C@@H]21)[C@@H](C)O)C(=O)N[C@H](C(=O)N[C@@H](CCCCN)C(=O)N[C@H](C(=O)O)C(C)C)[C@@H](C)O [PTEN_13] ({X1-Suc}-PFDEDQHTQITKV-OH)
Result: 0.012

Query: What does the data say about its BI? Entry: CC[C@H](C)[C@H](NC(=O)[C@H](CCC(N)=O)NC(=O)[C@@H](NC(=O)[C@H](Cc1c[nH]cn1)NC(=O)[C@H](CCC(N)=O)NC(=O)[C@H](CC(=O)O)NC(=O)[C@H](CCC(=O)O)NC(=O)[C@H](CC(=O)O)NC(=O)CCC(=O)NCCCOCCOCCOCCCNC(=O)CCCC[C@@H]1SC[C@@H]2NC(=O)N[C@@H]21)[C@@H](C)O)C(=O)N[C@H](C(=O)N[C@@H](CCCCNC(C)=O)C(=O)N[C@H](C(=O)O)C(C)C)[C@@H](C)O
Result: 0.145

Query: What does the data say about its BI? Entry: CC[C@H](C)[C@H](NC(=O)[C@H](CCC(N)=O)NC(=O)[C@@H](NC(=O)[C@H](Cc1c[nH]cn1)NC(=O)[C@H](CCC(N)=O)NC(=O)[C@H](CC(=O)O)NC(=O)[C@H](CCC(=O)O)NC(=O)[C@H](CC(=O)O)NC(=O)CCC(=O)NCCCOCCOCCOCCCNC(=O)CCCC[C@@H]1SC[C@@H]2NC(=O)N[C@@H]21)[C@@H](C)O)C(=O)N[C@H](C(=O)N[C@@H](CCCNC(=N)N)C(=O)N[C@H](C(=O)O)C(C)C)[C@@H](C)O [PTEN_KR] ({X1-Suc}-DEDQHTQITRV-OH)
Result: 0.02

Query: What does the data say about its BI? Entry: CC[C@H](C)[C@H](NC(=O)[C@H](CCC(N)=O)NC(=O)[C@@H](NC(=O)[C@H](Cc1c[nH]cn1)NC(=O)[C@H](CCC(N)=O)NC(=O)[C@H](CC(=O)O)NC(=O)[C@H](CCC(=O)O)NC(=O)[C@H](CC(=O)O)NC(=O)CCC(=O)NCCCOCCOCCOCCCNC(=O)CCCC[C@@H]1SC[C@@H]2NC(=O)N[C@@H]21)[C@@H](C)O)C(=O)N[C@H](C(=O)N[C@@H](CCCCN)C(=O)N[C@H](C(=O)O)C(C)C)[C@@H](C)O
Result: 0.021
